Listed here: compounds with reported IC50 for Glutathione reductase (Saccharomyces cerevisiae S288c, UniProt P41921).
QUANTITY_KIND: IC50 (µM)

{"columns": ["COMPOUND", "MEASURED_VALUE"],
 "data": [
  ["Cc1cc(O)c2c(=O)c3c(O)cc(O)c4c5c(O)cc(O)c6c(=O)c7c(O)cc(CO)c8c1c2c(c34)c(c65)c78 [PSEUDOHYPERICIN]", 2.2],
  ["Cc1cc(O)c2c(=O)c3c(O)cc(O)c4c5c(O)cc(O)c6c(=O)c7c(O)cc(C)c8c1c2c(c34)c(c78)c65 [HYPERICIN]", 3.67]
]}
